Reference for the values: ChEMBL document CHEMBL5608229

test: Cytotoxicity against human HepG2 cells incubated for 72 hrs by MTT assay; type: toxicity, cell-based
observable: CC50 at 72 h (µM)
Report as a plain number; the unit µM is understood.

Solved entries (count: 2):
COc1cc2nnc(NCC3(N(C)C)CCCCC3)nc2cc1OC : 93.1
CCc1ccc(C2CC(=O)C3=C(C2)NC(C)=C(C(=O)OCCc2ccccc2)C3c2ccncc2)cc1 (stereo unspecified) : 54.4

Could you now consider this next compound?
// field: CC50 at 72 h; key: c1ccc(CCN2CCC(NC34CC5CC(CC(C5)C3)C4)CC2)cc1 ; value = 38.1

* * *

Measured CC50 at 72 h accompanies every entry in the list below.
assay: Cytotoxicity against African green monkey COS-7 cells incubated for 72 hrs by MTT assay; format: toxicity, cell-based; conditions: chlorocebus aethiops
Report as a plain number; the unit µM is understood.

COc1cc2nnc(NCC3(N(C)C)CCCCC3)nc2cc1OC : 51
COc1ccc(CN2CCCC(CO)(Cc3ccccc3)C2)c(C)c1C (centres undefined) : 50.4
Clc1ccc(-c2nc(Nc3ccc(I)cc3)c3ccccc3n2)cc1 : 51.5
c1ccc(CCN2CCC(NC34CC5CC(CC(C5)C3)C4)CC2)cc1 : 48.3
COc1cc2nc(NCCc3nc(=O)c4c(C)c(C)sc4[nH]3)nc(N)c2cc1OC : 12.3

// field: CC50 at 72 h; key: COCCCNCCCCOc1ccc2ccccc2c1Br ; value = 11

// field: CC50 at 72 h; key: Cc1ccc(Nc2nc(-c3ccccc3Cl)nc3ccccc23)cc1 ; value = 42.8
